target: SARS-CoV-2 Nsp15 (Severe acute respiratory syndrome coronavirus 2); test: biochemical; format: biochemical; settings: extra sum-of-squares F test, highest inhibitor dose
Readout Kind: Km diff. vs DMSO

1) Oc1ccc2ccccc2c1SSc1c(O)ccc2ccccc12 [IPA-3, reference compound]	No
2) CC(=O)Nc1ccc(NS(=O)(=O)c2ccc3c(c2)C(=O)c2ccccc2C3=O)cc1 [CID5220994]	Yes
3) O=C(N/N=C/c1ccccc1O)c1ccc(O)c(O)c1 [CID5266986]	Yes
4) O=C1/C(=C/c2cc([N+](=O)[O-])cc(Br)c2O)SC(=S)N1Cc1ccccc1 [CID5675221]	Yes

---

target: SARS-CoV-2 Nsp15 (Severe acute respiratory syndrome coronavirus 2, UniProt P0DTD1); assay: biochemical; format: biochemical
Kindly state Ki for each of the entries shown.
// note: answer is a bare numeric in µM

Need Ki of CC(=O)Nc1ccc(NS(=O)(=O)c2ccc3c(c2)C(=O)c2ccccc2C3=O)cc1 , thanks.
72.9

What about this compound? Oc1c(Cl)cc(Cl)c(Cl)c1Cc1c(O)c(Cl)cc(Cl)c1Cl [hexachlorophene, reference compound]
1.23

What about this compound? O=C1/C(=C/c2cc([N+](=O)[O-])cc(Br)c2O)SC(=S)N1Cc1ccccc1
6.71

What about this compound? O=C(N/N=C/c1ccccc1O)c1ccc(O)c(O)c1
64.9

---

tested on: SARS-CoV-2; assay: microbe, parasite or virus in culture; assay type: cell-based; details: read-out: IC50, viral inhibition; Vero CCL-81 cells, MOI = 0.1, 24 h infection
pIC50: −log10 of the molar value.
Readout Kind: pIC50

Need pIC50 of Oc1c(Cl)cc(Cl)c(Cl)c1Cc1c(O)c(Cl)cc(Cl)c1Cl [hexachlorophene, reference compound] , thanks.
~6.00

---

test: Cell cytotoxicity assay (CellTiter-Glo); details: African green monkey, CC50, 24 h, measured in parallel with viral inhibition, Fig. 6
Readout Kind: CC50 at 24 h (µM)
// note: answer is a bare numeric in µM

Need CC50 at 24 h of O=C1/C(=C/c2cc([N+](=O)[O-])cc(Br)c2O)SC(=S)N1Cc1ccccc1 [CID5675221] , thanks.
290
